From: ChEMBL document CHEMBL4346698

Target Or Test System: Urea transporter 1 (Rattus norvegicus)
Sequence (P97689 whole entry): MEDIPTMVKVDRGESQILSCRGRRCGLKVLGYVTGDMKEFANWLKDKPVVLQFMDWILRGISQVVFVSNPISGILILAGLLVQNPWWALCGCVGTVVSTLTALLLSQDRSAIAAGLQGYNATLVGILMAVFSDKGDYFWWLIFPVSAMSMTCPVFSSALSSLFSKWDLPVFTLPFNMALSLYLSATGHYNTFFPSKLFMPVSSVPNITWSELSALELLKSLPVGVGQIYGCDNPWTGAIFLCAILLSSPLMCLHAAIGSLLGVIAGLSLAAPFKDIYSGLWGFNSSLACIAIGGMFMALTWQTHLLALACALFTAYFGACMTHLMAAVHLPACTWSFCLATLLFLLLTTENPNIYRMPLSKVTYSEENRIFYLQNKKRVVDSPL
Run Description: Inhibition of urea transporter B in Sprague-Dawley rat erythrocytes incubated for 6 mins by spectrophotometric analysis based erythrocyte lysis assay
Quantity: IC50 (µM)

Worked cases, IC50 given:
Test Smiles	Target Or Test System	IC50 / µM
COC(=O)c1sc2nc(C)ccc2c1N	Urea transporter 1 (Rattus norvegicus)	1.3
COC(=O)c1sc2nc3c(C)cc(C)cc3cc2c1N	Urea transporter 1 (Rattus norvegicus)	0.61
COC(=O)c1sc2nc(C)c(C(C)=O)cc2c1N	Urea transporter 1 (Rattus norvegicus)	0.91
CCc1cc2c(N)c(C(=O)OC)sc2nc1C	Urea transporter 1 (Rattus norvegicus)	0.71
COC(=O)c1sc2nc(-c3ccccc3)ccc2c1N	Urea transporter 1 (Rattus norvegicus)	3.36
COC(=O)c1sc2nc3ccccc3cc2c1N	Urea transporter 1 (Rattus norvegicus)	0.22
COC(=O)c1sc2nc3ccc(OC)cc3cc2c1N	Urea transporter 1 (Rattus norvegicus)	0.22
COC(=O)c1sc2nc3ccc(C)cc3cc2c1N	Urea transporter 1 (Rattus norvegicus)	0.23
COC(=O)c1sc2nc(C)c(-c3ccccc3)cc2c1N	Urea transporter 1 (Rattus norvegicus)	3.29
COC(=O)c1sc2nc(C)c(Br)cc2c1N	Urea transporter 1 (Rattus norvegicus)	8.47

(1) CC(=O)c1sc2nc3ccc(C)cc3cc2c1N
(2) COC(=O)c1sc2nc3ccc(Br)cc3cc2c1N
Query: Could you tell me which of 1 and 2 has the lower IC50 reading? // output: label of the selected item
Reply: 2
(2: 0.27 µM, 1: 3.51 µM)
